Reference source for all entries: paper PMC12530851

Below, each entry is listed alongside its reported pIC50.
Molecular target: EGFR (Homo sapiens, UniProt P00533)
Sequence (P00533 669-1210): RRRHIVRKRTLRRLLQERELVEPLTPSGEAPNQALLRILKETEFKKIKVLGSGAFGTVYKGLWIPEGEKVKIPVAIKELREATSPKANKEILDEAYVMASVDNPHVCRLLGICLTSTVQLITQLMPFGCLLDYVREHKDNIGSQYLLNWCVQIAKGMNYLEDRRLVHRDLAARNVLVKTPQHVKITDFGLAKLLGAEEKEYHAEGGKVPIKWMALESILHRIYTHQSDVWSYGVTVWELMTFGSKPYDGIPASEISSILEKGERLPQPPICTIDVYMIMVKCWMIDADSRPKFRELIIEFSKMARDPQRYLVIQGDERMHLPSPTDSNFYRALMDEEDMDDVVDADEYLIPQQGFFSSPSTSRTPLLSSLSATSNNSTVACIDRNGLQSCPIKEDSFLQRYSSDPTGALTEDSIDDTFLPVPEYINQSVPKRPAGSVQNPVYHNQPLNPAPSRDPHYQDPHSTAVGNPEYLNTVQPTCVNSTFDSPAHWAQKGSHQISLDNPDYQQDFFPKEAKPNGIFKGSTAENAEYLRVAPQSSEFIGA
Assay: EGFR inhibitory assay (EGFR-TK test)
pIC50: −log10 of the molar value.
property: pIC50

In [3]: df
Out[3]:
                                   compound  property  obs_value
0  N#Cc1c(-c2ccncc2)nc(SCc2nc(-c3ccc(Cl)cc3)no2)[nH]c1=O [Compound 10e]     pIC50       7.19
1  COc1ccc(-c2noc(CSc3nc(-c4ccc(OC)cc4)c(C#N)c(=O)[nH]3)n2)cc1 [Compound 10l]     pIC50       7.21
2  COc1ccc(-c2noc(CSc3nc(-c4ccc(Cl)cc4)c(C#N)c(=O)[nH]3)n2)cc1 [Compound 10i]     pIC50       7.15
3  COc1ccc(-c2nc(SCc3nc(-c4ccc(Cl)cc4)no3)[nH]c(=O)c2C#N)cc1 [Compound 10k]     pIC50       7.24
4  N#Cc1c(-c2ccc(Cl)cc2)nc(SCc2nc(-c3ccc(Cl)cc3)no2)[nH]c1=O [Compound 10h]     pIC50       7.10
